The origin of these recorded values is PubChem BioAssay (NCI).

- Tested on: HCC-2998 colon
- experimentSummary: NCI tumour cell line growth inhibition, 48 h
I'd appreciate it if you could supply TGI values for the items below.

Previously resolved entries follow.
INSERT INTO measurements (molecule, val) VALUES
  ('CN(C)CCCNC(=O)c1cn2c(ccc3sc4ccccc4c(=O)c32)n1', '25.4 µM'),
  ('NNC(=O)C(O)C(O)C(=O)NN (stereo unspecified)', '> 100 µM'),
  ('O=P(O)(O)CN1CCNCCN(CP(=O)(O)O)CC1', '> 100 µM'),
  ('O=C(/C=C/c1cccc2ccccc12)Nc1ncc(Cc2ccccc2)s1', '> 100 µM'),
  ('C=C1CC2[C@H](C)C(=O)CCC2(C)C2=C1C1CCC(C(C)CCC(=C)C(C)C(=O)O)C1(C)CC2=O (stereo partly specified)', '> 100 µM');

Please look at the following molecule next.
INPUT: Entry `C#CCOCn1cnc2ncnc(N)c21` , system HCC-2998 colon: what TGI was measured?
OUTPUT: > 100 µM
